Test: Water solubility
Type: physicochemical
Settings: water; sodium salt; 25° C.; read-out: solubility in water
reportedProperty: solubility

{"compound": "COCC(=O)Nc1c(I)c(C(=O)[O-])c(I)c(C(=O)NC(CO)(CO)CO)c1I.[Na+]", "dataValue": "~674 mg/mL"}

====

Experiment: Water solubility
Assay type: physicochemical
Details: water; sodium salt powder; read-out: solubility in water
reportedProperty: solubility

{"compound": "CC(=O)Nc1c(I)c(C(=O)[O-])c(I)c(C(=O)NC(COC(C)=O)(COC(C)=O)COC(C)=O)c1I.[Na+]", "dataValue": "≥ 1000 mg/mL"}

====

A collection of compounds and their measured LD50 at 168 h
Assay: Acute Intravenous Toxicity Studies in Mice
Assay type: in vivo
Details: mouse, in vivo, iv, meglumine salt solution, 28.27% iodine, lateral tail vein, 1 ml/min, seven day observation; read-out: LD50 I.V. (Mice)

{"compound": "CC(=O)Nc1c(I)c(C(=O)O)c(I)c(C(=O)NCCO)c1I [reference compound]", "LD50 at 168 h, mg/kg": 5810}
{"compound": "CC(=O)Nc1c(I)c(C(=O)O)c(I)c(C(=O)NC(CO)(CO)CO)c1I", "LD50 at 168 h, mg/kg": 6150}
{"compound": "CNC(=O)c1c(I)c(NC(C)=O)c(I)c(C(=O)O)c1I [Iothalamic Acid, reference compound]", "LD50 at 168 h, mg/kg": 5740}
{"compound": "CC(=O)Nc1c(I)c(C(=O)O)c(I)c(C(=O)NC(C)(CO)CO)c1I", "LD50 at 168 h, mg/kg": 4650}
